# System: c-Abl (mouse)
# experimentalDetails: phosphorylation enrichment, bacterial display (enrichment ratio); higher = better substrate or ligand; peptides without Tyr show the background
Each record here notes measured phosphorylation enrichment.
Respond using a number only.

Known phosphorylation enrichment results, listed for orientation:
itemSequence	tgt	phosphorylation enrichment
ALERPYTSKHS [NANS_Y71]	c-Abl (mouse)	0.615
IIGNGYYFHVF [MYBPC3_Y1135_R1138H]	c-Abl (mouse)	0.667
DLAGRYFALKS [CKB_Y173_YF]	c-Abl (mouse)	1.49

Recorded phosphorylation enrichment for EGDGVYTLNDE [HP_Y125_N129D] on c-Abl (mouse) was 0.8

Recorded phosphorylation enrichment for PGPQSYPTVTG [PAX5_Y299_I301T] on c-Abl (mouse) was 1.06

Recorded phosphorylation enrichment for FCRIMYDIFPF [INTS13_Y67_YF] on c-Abl (mouse) was 1.38

Recorded phosphorylation enrichment for ISSLRYELLEE [TRPC6_Y896] on c-Abl (mouse) was 0.621

Recorded phosphorylation enrichment for MVTSGYKAKTI [EFR3A_Y447] on c-Abl (mouse) was 0.42

Recorded phosphorylation enrichment for HFGNNYTDVLQ [MACC1_Y803_R804T_YF] on c-Abl (mouse) was 0.761

Recorded phosphorylation enrichment for PVDGEYFTLQI [TP53_Y327_L323V] on c-Abl (mouse) was 1.38

Recorded phosphorylation enrichment for FGLPRYRWLTH [TSPAN12_Y143_YF] on c-Abl (mouse) was 0.616

Recorded phosphorylation enrichment for RLSVDCGKKSK [TUBA4A_Y161_Y161C] on c-Abl (mouse) was 0.828

Recorded phosphorylation enrichment for FSDPDYLAAVD [GLB1_Y154_S149F] on c-Abl (mouse) was 0.577

====

Each record here notes measured SH2 binding enrichment.
# tgt: SHP2-C SH2
# experimentalDetails: SH2 binding enrichment of the phosphorylated peptide, bacterial display (enrichment ratio); higher = better substrate or ligand; peptides without Tyr show the background
Respond using a number only.

Known SH2 binding enrichment results, listed for orientation:
itemSequence	SH2 binding enrichment
ELSDGYWVVSN [TPP1_Y459_A454E]	0.616
SKLTIYDARPS [MTM1_Y277]	0.595

Switching to the query record.
Short answer for FPHVIYARLWR [SMAD4_Y95] : SH2 binding enrichment was 0.61

====

# System: c-Src
# experimentalDetails: phosphorylation enrichment, bacterial display (enrichment ratio); higher = better substrate or ligand; peptides without Tyr show the background
assayEndpoint: phosphorylation enrichment
Respond using a number only.

Known phosphorylation enrichment results, listed for orientation:
itemSequence	tgt	phosphorylation enrichment
KKRRSYGNSSD [SELENOK_Y52]	c-Src	0.525
WGTPEYDSVVA [MAP1A_Y1883_A1881P]	c-Src	0.59
KILGRYFETGS [PAX2_Y72_YF]	c-Src	0.413
IYLADYRIMEG [ALOX12B_Y318]	c-Src	1.16
PFTRNYFVRAV [CYBA_Y87_YF]	c-Src	0.419

Short answer for QEIATYRPLLE [KRT14_Y415_R417P] : phosphorylation enrichment was 0.705

Short answer for DEWFLYKMRDI [CPS1_Y879_K875E] : phosphorylation enrichment was 0.816

Short answer for RFFTTYDTNGR [CLCA1_Y665_YF] : phosphorylation enrichment was 1.09

Short answer for QFKDKYLAKHN [CASK_Y712_YF] : phosphorylation enrichment was 0.34

Short answer for RGKLFYQEVPA [METTL11B_Y76_A72G] : phosphorylation enrichment was 0.564

Short answer for SESSYYKSLNL [NGEF_Y289_A286S] : phosphorylation enrichment was 0.586

Short answer for KKLAEYGPQGK [CLCA1_Y147_R152K] : phosphorylation enrichment was 0.348

Short answer for DRKRQYELLKL [KIF4B_Y684] : phosphorylation enrichment was 0.395

Short answer for VGTKWYMAPEV [ACVRL1_Y375_R374W] : phosphorylation enrichment was 0.416

Short answer for QRRLVYYEGGA [RYR1_Y245] : phosphorylation enrichment was 0.583

Short answer for NPQKSYLIRLF [WAS_Y83_F84L_YF] : phosphorylation enrichment was 0.38

Short answer for EGDGVYTLNDE [HP_Y125_N129D] : phosphorylation enrichment was 3.79

Short answer for ESLSSYWESAK [APOC2_Y47] : phosphorylation enrichment was 0.392

Short answer for DFSLKYATDIP [APC_Y1183_YF] : phosphorylation enrichment was 0.378

Short answer for AIMSFYATLID [RYR1_Y2426_A2428T] : phosphorylation enrichment was 0.486

Short answer for PESIMYWKFTT [NTRK3_Y744_R745W] : phosphorylation enrichment was 3.1
